Please respond with reported selectivity ratio for every item in the list.
assay: Selectivity index, ratio of CC50 for human C8166 cells to EC50 for HIV1; assay type: toxicity, cell-based; settings: read-out: Ratio CC50/EC50
Quick one: just the number, no unit, thanks!

Enquiry: Requested read-out: selectivity ratio. Entry: C[C@@H]1C(=O)[C@@]2(C)CC[C@]34C[C@]56OC(=O)C[C@H]5O[C@@](C)(CO)[C@@H]6[C@@H](O)C[C@H]3C(=O)[C@]3(O4)O[C@@]4(C[C@H](C)C(=O)O4)[C@@H]1[C@H]32
Return: 12.7

Enquiry: Same again, this time with C[C@@H]1C(=O)[C@@]2(C)CC[C@]34C[C@]56OC(=O)C[C@H]5O[C@@](C)(CO)[C@@H]6C[C@@H]5O[C@@]53C(=O)[C@@]3(O[C@@]5(C[C@H](C)C(=O)O5)[C@@H]1[C@H]32)O4
Return: 4

Enquiry: Same again, this time with C[C@@H]1C(=O)[C@@]2(C)CC[C@]34C[C@]56OC(=O)C[C@H]5O[C@@](C)(CO)[C@@H]6CC[C@@]3(O)C(=O)[C@@]3(O[C@@]5(C[C@H](C)C(=O)O5)[C@@H]1[C@H]32)O4
Return: 1.1
